# Test system: LpxC enzyme
# Experiment description: LpxC enzyme assay (RapidFire high-throughput mass spectrometry)
# Assay type: biochemical
# Measurement parameters: concentration 1.56 (unit not given)
Assay endpoint: LpxC enzyme assay rating (% inhibition at indicated concentrations)

{"Compound": "CN(C)C(=O)[C@H](O)[C@@H](O)C(=O)N(C)c1ccccc1C#Cc1ccccc1 [Compound 103]", "Reported measurement": "B (10-30% inhibition)"}
{"Compound": "CNC(=O)[C@H](O)[C@@H](O)C(=O)Nc1ccc(-c2cc[nH]n2)cc1 [Compound 42]", "Reported measurement": "B (10-30% inhibition)"}
{"Compound": "CN1CCN(c2ccc(NC(=O)[C@H](O)[C@@H](O)C(=O)N(C)C)cc2)CC1 [Compound 55]", "Reported measurement": "B (10-30% inhibition)"}
{"Compound": "O=C(NCCCCl)[C@H](O)[C@@H](O)C(=O)Nc1ccc(-n2cccn2)cc1 [Compound 62]", "Reported measurement": "B (10-30% inhibition)"}

With those in mind, consider the next compound.
Looking up CCCCc1ccc(NC(=O)[C@H](O)[C@@H](O)C(=O)N2CCCC2)cc1 [Compound 66] , I found its LpxC enzyme assay rating (% inhibition at indicated concentrations) recorded as B (10-30% inhibition)

* * *

# Tgt: ADMP (ADAMTS-4-5) (Homo sapiens)
# Construct: purchased Calbiochem PF113
# Sequence (O75173 213-837): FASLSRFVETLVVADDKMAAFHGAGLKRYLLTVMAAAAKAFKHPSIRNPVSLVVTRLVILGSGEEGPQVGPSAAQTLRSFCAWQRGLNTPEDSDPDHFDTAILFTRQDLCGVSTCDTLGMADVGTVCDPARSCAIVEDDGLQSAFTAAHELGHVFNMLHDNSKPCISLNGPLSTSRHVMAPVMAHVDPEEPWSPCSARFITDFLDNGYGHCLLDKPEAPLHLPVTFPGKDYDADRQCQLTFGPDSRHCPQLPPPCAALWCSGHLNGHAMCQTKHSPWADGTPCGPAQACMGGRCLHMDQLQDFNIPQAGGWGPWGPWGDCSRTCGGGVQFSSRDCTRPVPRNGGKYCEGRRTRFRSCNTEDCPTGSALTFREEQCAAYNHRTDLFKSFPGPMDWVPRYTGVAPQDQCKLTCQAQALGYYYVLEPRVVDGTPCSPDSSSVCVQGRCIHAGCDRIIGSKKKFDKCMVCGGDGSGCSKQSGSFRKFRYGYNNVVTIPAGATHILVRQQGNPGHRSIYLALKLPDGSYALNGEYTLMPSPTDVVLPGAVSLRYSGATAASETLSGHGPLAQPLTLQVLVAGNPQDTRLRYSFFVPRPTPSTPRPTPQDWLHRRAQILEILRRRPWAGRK
# Experiment description: ADMP activity assay (procedures of WO00/05256)
# Assay type: biochemical
# Measurement parameters: read-out: IC50 rating (ADMP inhibitory activity)
pIC50: −log10 of the molar value.
Assay endpoint: pIC50

# example entries with known answers
{"Compound": "C[C@H](NC(=O)[C@H](O)[C@@H](O)C(=O)N1CCc2ccccc2C1)c1ccc(-c2ccc(O)cc2)cc1", "pIC50": "> 6.60"}
{"Compound": "C[C@H](NC(=O)[C@H](O)[C@@H](O)C(=O)N(C)C1CCN(C)CC1)c1ccc(Br)cc1", "pIC50": "5.30 to 6.00"}
{"Compound": "C[C@H](NC(=O)C(O)C(O)C(=O)N1Cc2ccccc2C1)c1cccc(O)c1 (stereo partly shown)", "pIC50": "5.30 to 6.00"}
{"Compound": "CC(NC(=O)[C@H](O)[C@@H](O)C(=O)N1CCc2ccccc2C1)c1ccc(C(F)(F)F)cc1 (stereo partly shown)", "pIC50": "6.00 to 6.60"}
{"Compound": "C[C@H](NC(=O)[C@H](O)[C@@H](O)C(=O)N(C)C1Cc2ccccc2C1)c1ccc(Br)cc1", "pIC50": "6.00 to 6.60"}
{"Compound": "CN(C)CCN(C)C(=O)[C@H](O)[C@@H](O)C(=O)NCc1ccc(C(F)(F)F)cc1", "pIC50": "< 5.30"}

With those in mind, consider the next compound.
Looking up `C[C@H](NC(=O)[C@H](O)[C@@H](O)C(=O)N1CCN(c2ccc(O)cc2)CC1)c1ccc(Br)cc1` , I found its pIC50 recorded as 5.30 to 6.00

* * *

# Test system: LpxC enzyme
# Experiment description: LpxC enzyme assay (RapidFire high-throughput mass spectrometry)
# Type: biochemical
# Measurement parameters: concentration 3.13 (unit not given)
# Method: The standard LpxC assay consists of 0.2 nM LpxC enzyme, 1.0 μM UDP-3-O—(R-3-hydroxymyristoyl)-N-acetylglucosamine, and test compound, in assay buffer and 2% DMSO. […] The concentrations of substrate and product in the reaction mixtures are determined with BioTrove's proprietary RapidFire™ high-throughput mass spectrometry (HTMS). […] The mass spectrometry peak areas of the substrate and product are measured to determine the concentration of these analytes. […]
Assay endpoint: LpxC enzyme assay rating (% inhibition at indicated concentrations)

{"Smiles": "CCCc1ccc(NC(=O)[C@H](O)[C@@H](O)C(=O)NC)cc1", "Reported measurement": "B (10-30% inhibition)"}
{"Smiles": "CNC(=O)[C@H](O)[C@@H](O)C(=O)Nc1ccc(-c2ccccc2)cc1", "Reported measurement": "B (10-30% inhibition)"}
